All values here come from paper PMC12621043.

target: DMPK1A (Homo sapiens, UniProt Q09013); construct: purchased in-house DSF kinase panel (SGC-style construct names; the trailing letter is the construct ID); assay: DSF Tm panel; type: binding; conditions: 10 μM compound
Sequence (Q09013 whole entry): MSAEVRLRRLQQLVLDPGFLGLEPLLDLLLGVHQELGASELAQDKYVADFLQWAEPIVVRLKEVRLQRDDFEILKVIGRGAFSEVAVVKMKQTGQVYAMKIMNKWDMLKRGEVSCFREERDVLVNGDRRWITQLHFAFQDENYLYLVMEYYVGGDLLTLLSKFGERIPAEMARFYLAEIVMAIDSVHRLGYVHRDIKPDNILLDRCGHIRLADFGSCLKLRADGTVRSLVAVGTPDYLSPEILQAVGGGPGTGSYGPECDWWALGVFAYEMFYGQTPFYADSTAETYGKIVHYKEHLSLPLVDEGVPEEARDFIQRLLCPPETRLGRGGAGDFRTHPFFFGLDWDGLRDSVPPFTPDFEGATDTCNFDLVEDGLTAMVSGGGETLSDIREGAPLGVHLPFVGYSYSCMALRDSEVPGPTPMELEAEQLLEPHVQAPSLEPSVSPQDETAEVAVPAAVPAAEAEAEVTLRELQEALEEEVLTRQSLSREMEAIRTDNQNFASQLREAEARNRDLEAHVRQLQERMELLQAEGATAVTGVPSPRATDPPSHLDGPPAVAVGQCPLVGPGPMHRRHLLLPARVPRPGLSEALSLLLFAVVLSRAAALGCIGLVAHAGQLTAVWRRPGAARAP
ASSAY_ENDPOINT: ΔTm at 10 µM (°C)

Observe how each entry below is paired with its result.
entry_smiles=O=C(NCc1ccccc1)Nc1ccc2cc1OCCOCCNc1ccn3ncc-2c3n1 value_unit=°C test_value=0.3
entry_smiles=COc1cccc(CNC(=O)Nc2ccc3cc2OCCOCCNc2ccn4ncc-3c4n2)c1 value_unit=°C test_value=0.4

(I) Cc1ccc(F)cc1CNC(=O)Nc1ccc2cc1OCCOCCNc1ccn3ncc-2c3n1
(II) COc1ccc(CNC(=O)Nc2ccc3cc2OCCOCCNc2ccn4ncc-3c4n2)cc1F
I need your help: which of the pair I , II has higher ΔTm at 10 µM? Indicate which entry you chose by stating its label.
II

* * *

target: PIM3A (Homo sapiens, UniProt Q86V86); construct: purchased in-house DSF kinase panel (SGC-style construct names; the trailing letter is the construct ID); test: DSF Tm panel; assay type: binding; conditions: 10 μM compound
ASSAY_ENDPOINT: ΔTm at 10 µM (°C)

(P) COc1ccc(CNC(=O)Nc2ccc3cc2OCCOCCNc2ccn4ncc-3c4n2)cc1F [compound 32]
(Q) COc1cc(CNC(=O)Nc2ccc3cc2OCCOCCNc2ccn4ncc-3c4n2)ccc1F [compound 33]
Quick one: lower ΔTm at 10 µM, P or Q ? Indicate which entry you chose by stating its label.
P
(P: -4.8 °C, Q: 5.1 °C)

(I) O=C(NCc1cccc(Cl)c1)Nc1ccc2cc1OCCOCCNc1ccn3ncc-2c3n1 [compound 18]
(II) CN1CCN(C(=O)Nc2ccc3cc2OCCOCCNc2ccn4ncc-3c4n2)CC1 [compound 35]
I need your help: which of the pair I , II has higher ΔTm at 10 µM? Indicate which entry you chose by stating its label.
I
(I: 3 °C, II: 1.6 °C)

(1) Cc1ccc(F)cc1CNC(=O)Nc1ccc2cc1OCCOCCNc1ccn3ncc-2c3n1 [compound 26]
(2) Cc1cc(Cl)ccc1CNC(=O)Nc1ccc2cc1OCCOCCNc1ccn3ncc-2c3n1 [compound 23]
Quick one: lower ΔTm at 10 µM, 1 or 2 ? Indicate which entry you chose by stating its label.
2

* * *

target: CSNK1EA (Homo sapiens, UniProt P49674); construct: purchased in-house DSF kinase panel (SGC-style construct names; the trailing letter is the construct ID); experiment: DSF Tm panel; assay type: binding; conditions: 10 μM compound
Sequence (P49674 1-294): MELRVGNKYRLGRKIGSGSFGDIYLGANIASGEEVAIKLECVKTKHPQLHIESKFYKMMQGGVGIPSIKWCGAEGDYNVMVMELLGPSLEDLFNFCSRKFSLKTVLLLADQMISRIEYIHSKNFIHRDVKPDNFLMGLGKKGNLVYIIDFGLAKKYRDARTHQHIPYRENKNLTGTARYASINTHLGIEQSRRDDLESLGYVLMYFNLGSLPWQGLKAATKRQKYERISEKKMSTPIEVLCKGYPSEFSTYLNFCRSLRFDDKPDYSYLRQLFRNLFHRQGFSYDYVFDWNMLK
ASSAY_ENDPOINT: ΔTm at 10 µM (°C)

Observe how each entry below is paired with its result.
molecule="Cc1ccc(F)cc1CNC(=O)Nc1ccc2cc1OCCOCCNc1ccn3ncc-2c3n1 [compound 26]" assay_endpoint="ΔTm at 10 µM" value_unit=°C test_value=0.7
molecule="COc1cc(CNC(=O)Nc2ccc3cc2OCCOCCNc2ccn4ncc-3c4n2)ccc1F [compound 33]" assay_endpoint="ΔTm at 10 µM" value_unit=°C test_value=0.6

(a) C[C@H](NC(=O)Nc1ccc2cc1OCCOCCNc1ccn3ncc-2c3n1)c1ccccc1 [compound 34]
(b) COc1cccc(CNC(=O)Nc2ccc3cc2OCCOCCNc2ccn4ncc-3c4n2)c1 [compound 30]
Quick one: lower ΔTm at 10 µM, a or b ? Indicate which entry you chose by stating its label.
a
(a: 0.4 °C, b: 0.7 °C)
